Each recorded value in this set is attributed to patent EP4501917A1.

- TGT: HDAC8 (Homo sapiens)
- Construct: purchased BPS bioscience
- ASSAY_DETAILS: HDAC8 inhibitory activity analysis (in vitro), RFU analysis, HDAC Fluorogenic assay kit
- Type: biochemical
- SETUP_CONDITIONS: compound final concentration 10 µM; HDAC substrate 2A 20 µM; positive control (1% DMSO) set to 100, lower = more inhibition
ASSAY_METRIC: RFU (%)

>  <COMPOUND>
Cc1cc2nc(C(=O)NCc3ccc(C(=O)NO)cc3)c(=O)n(C[C@H](O)[C@H](O)[C@H](O)CO)c2cc1C [Example 47]

>  <NUMBER>
53.58

$$$$
>  <COMPOUND>
Cc1cc2nc(C(=O)NCc3ccc(F)cc3)c(=O)n(C[C@H](O)[C@H](O)[C@H](O)CO)c2cc1C [Example 4]

>  <NUMBER>
85.71

$$$$
>  <COMPOUND>
Cc1cc2nc(C(=O)NCCc3c[nH]c4ccc(O)cc34)c(=O)n(C[C@H](O)[C@H](O)[C@H](O)CO)c2cc1C [Example 27]

>  <NUMBER>
7.62

$$$$
>  <COMPOUND>
Cc1cc2nc(C(=O)Nc3nnc(-c4ccc(Br)cc4)s3)c(=O)n(C[C@H](O)[C@H](O)[C@H](O)CO)c2cc1C [Example 11]

>  <NUMBER>
63.24

$$$$

I = Cc1cc2nc(C(=O)NCCc3ccc(Cl)cc3Cl)c(=O)n(C[C@H](O)[C@H](O)[C@H](O)CO)c2cc1C [Example 9]
II = Cc1cc2nc(C(=O)Nc3cc(C(=O)NO)ccc3C)c(=O)n(C[C@H](O)[C@H](O)[C@H](O)CO)c2cc1C [Example 51]
III = Cc1cc2nc(C(=O)Nc3cc(-c4ccc(Br)cc4)no3)c(=O)n(C[C@H](O)[C@H](O)[C@H](O)CO)c2cc1C [Example 10]
Exercise: Reorder the items by RFU (%), least to greatest. Sort and list the labels as requested.
Key: II, III, I

====

- TGT: HDAC8 (Homo sapiens)
- Construct: purchased BPS bioscience
- ASSAY_DETAILS: HDAC8 inhibitory activity analysis (in vitro), RFU analysis, HDAC Fluorogenic assay kit
- Type: biochemical
- SETUP_CONDITIONS: compound final concentration 10 µM; HDAC substrate 2A 20 µM; positive control (1% DMSO) set to 100, lower = more inhibition
ASSAY_METRIC: RFU (%)

Guide cases for RFU (%), answers given:
>  <COMPOUND>
Cc1cc2nc(C(=O)Nc3cc(-c4ccc(Br)cc4)n[nH]3)c(=O)n(C[C@H](O)[C@H](O)[C@H](O)CO)c2cc1C

>  <ASSAY_METRIC>
RFU (%)

>  <NUMBER>
58.97

$$$$
>  <COMPOUND>
Cc1cc2nc(C(=O)NC3CCC(C(=O)NO)C3)c(=O)n(C[C@H](O)[C@H](O)[C@H](O)CO)c2cc1C (stereo partly shown)

>  <ASSAY_METRIC>
RFU (%)

>  <NUMBER>
41.96

$$$$
>  <COMPOUND>
Cc1cc2nc(C(=O)NCc3ccc4[nH]cnc4c3)c(=O)n(C[C@H](O)[C@H](O)[C@H](O)CO)c2cc1C

>  <ASSAY_METRIC>
RFU (%)

>  <NUMBER>
34.05

$$$$
>  <COMPOUND>
Cc1cc2nc(C(=O)NCc3nc4ccccc4[nH]3)c(=O)n(C[C@H](O)[C@H](O)[C@H](O)CO)c2cc1C

>  <ASSAY_METRIC>
RFU (%)

>  <NUMBER>
42.03

$$$$

I = Cc1cc2nc(C(=O)NCc3cccc(C(=O)NO)c3)c(=O)n(C[C@H](O)[C@H](O)[C@H](O)CO)c2cc1C
II = CC(/C=C/C(=O)NO)=C\[C@@H](C)C(=O)c1ccc(N(C)C)cc1 [TSA, Trichostatin A, reference compound]
III = Cc1cc2nc(C(=O)NCc3ccc(CC(=O)NO)cc3)c(=O)n(C[C@H](O)[C@H](O)[C@H](O)CO)c2cc1C
Exercise: Reorder the items by RFU (%), least to greatest. Sort and list the labels as requested.
Key: II, III, I

====

- TGT: HDAC8 (Homo sapiens, UniProt Q9BY41)
- Construct: purchased BPS bioscience
- Sequence (Q9BY41 1-377): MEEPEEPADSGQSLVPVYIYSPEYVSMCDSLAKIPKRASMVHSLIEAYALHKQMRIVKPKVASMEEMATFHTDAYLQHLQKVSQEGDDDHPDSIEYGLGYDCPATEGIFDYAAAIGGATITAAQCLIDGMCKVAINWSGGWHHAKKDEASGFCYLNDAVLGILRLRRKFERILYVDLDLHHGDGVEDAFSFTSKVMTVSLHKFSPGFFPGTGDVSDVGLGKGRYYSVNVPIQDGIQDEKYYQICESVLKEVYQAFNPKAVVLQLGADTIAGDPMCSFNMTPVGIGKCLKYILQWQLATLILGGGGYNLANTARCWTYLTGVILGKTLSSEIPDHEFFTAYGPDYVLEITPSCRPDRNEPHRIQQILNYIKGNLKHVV
- ASSAY_DETAILS: HDAC8 inhibitory activity analysis (in vitro), RFU analysis, HDAC Fluorogenic assay kit
- Type: biochemical
- SETUP_CONDITIONS: compound final concentration 10 µM; HDAC substrate 2A 20 µM; positive control (1% DMSO) set to 100, lower = more inhibition
ASSAY_METRIC: RFU (%)

>  <COMPOUND>
COC(=O)C1CCC(NC(=O)c2nc3cc(C)c(C)cc3n(C[C@H](O)[C@H](O)[C@H](O)CO)c2=O)C1 (stereo partly shown)

>  <ASSAY_METRIC>
RFU (%)

>  <NUMBER>
69.48

$$$$
>  <COMPOUND>
Cc1cc2nc(C(=O)Nc3nc4c(F)cccc4[nH]3)c(=O)n(C[C@H](O)[C@H](O)[C@H](O)CO)c2cc1C

>  <ASSAY_METRIC>
RFU (%)

>  <NUMBER>
8.23

$$$$
>  <COMPOUND>
COc1ccc(Cn2ccc3ccc(C(=O)NO)cc32)cc1 [PCI-34051, reference compound]

>  <ASSAY_METRIC>
RFU (%)

>  <NUMBER>
1.86

$$$$

I = Cc1cc2nc(C(=O)Nc3ccc(C(=O)NO)cc3)c(=O)n(C[C@H](O)[C@H](O)[C@H](O)CO)c2cc1C
II = Cc1cc2nc(C(=O)NCc3cc(Cl)cc(Cl)c3)c(=O)n(C[C@H](O)[C@H](O)[C@H](O)CO)c2cc1C
Exercise: Look at I and II . Which one has the lower recorded RFU (%) number? // return label of chosen record
Key: I
(I: 10.48%, II: 54.79%)
